- Tested target: human S1P1 receptors (Homo sapiens, UniProt P21453)
- Construct: myc (N)
- Sequence (P21453 whole entry): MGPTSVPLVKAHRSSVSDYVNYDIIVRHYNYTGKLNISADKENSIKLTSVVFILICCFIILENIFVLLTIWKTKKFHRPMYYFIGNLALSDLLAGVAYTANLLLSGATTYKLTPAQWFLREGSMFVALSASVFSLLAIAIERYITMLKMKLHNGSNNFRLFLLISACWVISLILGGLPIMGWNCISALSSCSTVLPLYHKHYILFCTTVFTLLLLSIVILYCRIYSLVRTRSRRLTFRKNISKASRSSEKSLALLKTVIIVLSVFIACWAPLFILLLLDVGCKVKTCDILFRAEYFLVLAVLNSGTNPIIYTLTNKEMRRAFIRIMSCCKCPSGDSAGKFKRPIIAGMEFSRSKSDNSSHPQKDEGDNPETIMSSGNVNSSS
- Experiment summary: Human S1P1 Receptor Calcium FLIPR Antagonist Assay (HeLa Gα16 S1P1)
- Run parameters: relative antagonism of Ca2+ signal evoked by probing agonist GNF-AC-1 at EC80; HeLa-S1P1/Gα16 cells
Binarize IC50 at 3 nM; below is y, at or above is n.

INSERT INTO measurements (compound, class) VALUES
  ('Cc1cc(C(C)Nc2cccc(-c3cc(F)c(C(=O)N(C)[C@@H](C)C(=O)O)c(F)c3)c2)ccc1Cl (stereo partly shown)', 'n'),
  ('Cc1cc(C(C)Nc2cccc(-c3ccc(C(=O)N(C)[C@@H](C)C(=O)O)c(F)c3)c2)cc(C)c1Cl (stereo partly shown)', 'n'),
  ('Cc1cc(C(Nc2cccc(-c3ccc(C(=O)N[C@@H](C)C(=O)O)c(Cl)c3)c2)C(F)(F)F)ccc1Cl (stereo partly shown)', 'n'),
  ('Cc1cc(C(C)Nc2cccc(-c3ccc(C(=O)N[C@@H](C)C(=O)O)c(Cl)c3)c2)cc(C)c1Cl (stereo partly shown)', 'y'),
  ('Cc1cc(-c2cccc(NC(C)c3ccc(F)c(OC(F)(F)F)c3)c2)cc(C)c1C(=O)N[C@@H](C)C(=O)O (stereo partly shown)', 'n'),
  ('COc1ccc(C(C)Nc2cccc(-c3cc(C)c(C(=O)N[C@@H](C)C(=O)O)c(C)c3)c2)cc1C (stereo partly shown)', 'y'),
  ('CCC(Nc1ccc(F)c(-c2cc(C)c(C(=O)NC3(C(=O)O)CC3)c(C)c2)c1)c1ccc(Cl)c(C)c1 (stereo not shown)', 'y'),
  ('Cc1cc(C(C)Nc2cccc(-c3ccc(C(=O)N(C)[C@@H](C)C(=O)O)c(C(F)(F)F)c3)c2)ccc1Cl (stereo partly shown)', 'y'),
  ('CC[C@H](c1ccc(Cl)c(C)c1)N(C)c1cccc(-c2cc(C)c(C(=O)NC3(C(=O)O)CC3)c(C)c2)c1', 'n'),
  ('Cc1cc(C(C)Nc2cccc(-c3cc(F)c(C(=O)N[C@@H](C)C(=O)O)c(F)c3)c2)cc(C)c1Cl (stereo partly shown)', 'y'),
  ('Cc1cc(-c2cccc(NC(C)c3ccc(Cl)c(Cl)c3)c2)cc(C)c1C(=O)N[C@@H](C)C(=O)O (stereo partly shown)', 'y'),
  ('CCC(Nc1ccc(F)c(-c2ccc(C(=O)N(C)[C@@H](C)C(=O)O)c(C)c2)c1)c1ccc(Cl)c(C)c1 (stereo partly shown)', 'n'),
  ('Cc1cc(C(C)Nc2cccc(-c3cc(C)c(C(=O)NC4(C(=O)O)CC4)c(C)c3)c2)ccc1Cl (stereo not shown)', 'y'),
  ('COc1ccc(C(C)Nc2cccc(-c3cc(C)c(C(=O)N[C@@H](C)C(=O)O)c(C)c3)c2)cc1F (stereo partly shown)', 'n'),
  ('Cc1cc(C(C)(C)Nc2cccc(-c3ccc(C(=O)N(C)[C@@H](C)C(=O)O)c(Cl)c3)c2)ccc1Cl', 'n'),
  ('Cc1cc(C(Nc2cccc(-c3ccc(C(=O)N(C)[C@@H](C)C(=O)O)c(C(F)(F)F)c3)c2)C(F)(F)F)ccc1Cl (stereo partly shown)', 'n'),
  ('CC[C@H](c1ccc(Cl)c(C)c1)N(C)c1cccc(-c2cc(C)c(C(=O)N[C@@H](C)C(=O)O)c(C)c2)c1', 'y'),
  ('Cc1cc(C(C)N(C)c2cccc(-c3cc(C)c(C(=O)N[C@@H](C)C(=O)O)c(C)c3)c2)ccc1Cl (stereo partly shown)', 'n'),
  ('Cc1cc(C(C)Nc2cccc(-c3ccc(C(=O)N[C@@H](C)C(=O)O)c(Cl)c3)c2)ccc1Cl (stereo partly shown)', 'y'),
  ('Cc1cc(C(C)Nc2cccc(-c3cc(C)c(C(=O)NC4(C(=O)O)CCC4)c(C)c3)c2)ccc1Cl (stereo not shown)', 'y'),
  ('CC[C@@H](Nc1ccc(F)c(-c2cc(C)c(C(=O)NC3(C(=O)O)CC3)c(C)c2)c1)c1ccc(Cl)c(C)c1', 'y'),
  ('Cc1cc([C@@H](C)Nc2cccc(-c3cc(C)c(C(=O)N[C@@H](CN)C(=O)O)c(C)c3)c2)ccc1Cl', 'y'),
  ('COc1ccc(C(C)Nc2cccc(-c3cc(C)c(C(=O)N[C@@H](C)C(=O)O)c(C)c3)c2)c(F)c1 (stereo partly shown)', 'n'),
  ('Cc1cc(C(C)(C)Nc2cccc(-c3cc(C)c(C(=O)N(C)[C@@H](C)C(=O)O)c(C)c3)c2)ccc1Cl', 'y'),
  ('Cc1cc(C(Nc2cccc(-c3cc(C)c(C(=O)N[C@@H](C)C(=O)O)c(C)c3)c2)C(C)C)ccc1Cl (stereo partly shown)', 'n'),
  ('Cc1cc(C(C)Nc2cccc(-c3ccc(C(=O)N(C)[C@@H](C)C(=O)O)c(Cl)c3)c2)cc(C)c1Cl (stereo partly shown)', 'n');
